# credit: paper PMC5540273

System: MAP3K15
condition_context: concentration: 1 μM,replicates: in singlicate; n = 1;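 further: KINOMEscan kinase panel screen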
measurement_name: %Inh

• COc1cccc(C2=C(Nc3cccc(Cl)c3)C(=O)NC2=O)c1 [SB-341556] = 21%
• COC(=O)Nc1nc2cc(Oc3ccc(NC(=O)Nc4cc(C(F)(F)F)ccc4Cl)cc3)ccc2[nH]1.Cl [GW697465] = 0%
• c1ccc(Oc2ccc(Nc3ccnc4ccc(-c5ccccn5)cc34)cc2)cc1 [GW407034] = 0%
• C[C@@H]1CNc2c(sc3ccc4nc(-c5ccc(O)cc5)ccc4c23)C(=O)N1 = 61%
• Cc1cccc2c(-c3ccncc3)c(-c3ccc(F)cc3)nn12.Cl [GW461487] = 100%
• C[C@@H]1CCN(C(=O)N2CCCC2)C[C@@H]1N(C)c1ncnc2[nH]ccc12 = 31%
• O=C(Nc1ccccc1)c1cccc(Oc2ccc3nccn3n2)c1 = 0%
• CCCC(=O)Nc1n[nH]c2ncccc12 [SB-601436] = 29%
• O=C(NCC1CC1)c1ccc(-c2cc(C(=O)NC3CC3)ccc2F)cc1 [GW810445] = 0%
• C[C@@H](Oc1cc(-n2cnc3cc(-c4ccncc4)ccc32)sc1C(N)=O)c1ccccc1Cl [GSK479719] = 18%
• COc1cccc(CNC(=O)NC2CCN(c3ccnc(Nc4cc(OC)c(OC)c(OC)c4)n3)C2)c1 (stereo not drawn) [GSK1379765] = 0%
• CSc1nccc(-c2c(-c3ccc(F)cc3)ncn2CCCN2CCOCC2)n1.Cl [SB-217146] = 0%
• Cc1n[nH]c2cc(Nc3ccnc(Nc4cccc(CN5CCOCC5)c4)n3)ccc12 [GW682569] = 0%
• Cc1nnc(-c2ccc3occ(-c4ccc(S(C)=O)cc4)c3n2)o1 (stereo not drawn) = 0%
• C[C@@H]1CNc2c(sc3ccc4nc(-c5ccncc5)ccc4c23)C(=O)N1 = 52%
• CC(C)c1nc(-c2cccc(NS(=O)(=O)c3ccccc3)c2)c(-c2ccnc(Nc3ccc4c(c3)CN(C)CC4)n2)s1 [GSK1649598] = 30%
• Cc1ccn2nc(-c3ccc(F)cc3)c(-c3ccncc3)c2c1.Cl [GW457859] = 0%
• C[C@@H](Oc1cc(-n2cnc3cc(-c4cnn(C)c4)ccc32)sc1C(N)=O)c1ccccc1Cl [GSK580432] = 12%

###

Test system: DAPK2
condition_context: concentration: 1 μM,replicates: in singlicate; n = 1
measurement_name: %Inh (%)

* Cc1nnc(-c2ccc3occ(-c4ccc(S(C)=O)cc4)c3n2)o1 (stereo not drawn) | 0
* O=C(NOCC1CC1)c1cc(Br)c(F)c(F)c1Nc1ccc(I)cc1Cl | 0
* C[C@@H]1CNc2c(sc3ccc4nc(-c5ccc(O)cc5)ccc4c23)C(=O)N1 | 34
* CN(c1ccccc1CNc1nc(Nc2ccc3c(c2)CC(=O)N3)ncc1C(F)(F)F)S(C)(=O)=O | 24
* Cl.Cl.NC[C@H](CC1CCCCC1)NC(=O)c1ccc(-c2ccnc3[nH]ccc23)s1 | 12
* COc1cc(Nc2nccc(N3CCC(NC(=O)c4cccc(C#N)c4)C3)n2)cc(OC)c1OC (stereo not drawn) | 0
* CS(=O)(=O)Nc1ccc(-c2ccnc3[nH]ccc23)cc1 | 54
* C[C@@H](Oc1cc(-n2cnc3cc(-c4cnn(C)c4)ccc32)sc1C(N)=O)c1ccccc1Cl | 43
* Cc1n[nH]c2cc(Nc3ccnc(Nc4cccc(CN5CCOCC5)c4)n3)ccc12 | 25

###

Tested on: p38-delta
condition_context: concentration: 1 μM,replicates: in singlicate; n = 1
Lab note: cut-off is 30%. Strictly less in %Inh is met. Exactly 30% or more is not met.

* CN1CCN(CCNc2nc3cc(Oc4ccc(NC(=O)Nc5cc(C(F)(F)F)ccc5F)cc4)ccc3[nH]2)CC1.Cl.Cl | met
* C[C@@H](Oc1cc(-n2cnc3cc(-c4ccncc4)ccc32)sc1C(N)=O)c1ccccc1Cl | met
* COC(=O)c1cccc(NC(=O)NC2CCN(c3ccnc(NCc4ccc(F)cc4)n3)CC2)c1 | not met
* CNC(=O)c1ccccc1Nc1nc(Nc2cccc(CS(C)(=O)=O)c2)ncc1C.O=CO | met
* OCCn1cc(-c2cnc3nnn(Cc4ccc5ncccc5c4)c3n2)cn1 | met
* CC(C(=O)NC1CCN(c2ccnc(Nc3ccc(F)cc3)n2)C1)c1ccc(Cl)cc1 (centres unmarked) | met
* O=C1NCCc2[nH]c(-c3ccncc3)cc21 | not met
* COc1cccc(C2=C(Nc3cccc(Cl)c3)C(=O)NC2=O)c1 | met
* COc1cccc(OC)c1C(=O)Nc1cccc(-c2nn3ccccc3c2-c2ccnc(Nc3cccc(F)c3)n2)c1 | met
* Cc1ccc2c(-c3ccnc(Nc4ccc(C(F)(F)F)cc4)n3)cnn2n1 | met
* CC(=O)Nc1nc2cnc(Nc3cc(NC(=O)c4cccc(CC(C)(C)C#N)c4)ccc3C)nc2s1 | not met
* O=C(NOCC1CC1)c1cc(Br)c(F)c(F)c1Nc1ccc(I)cc1Cl | not met
* CC(C)c1nc(-c2cccc(NS(=O)(=O)c3ccccc3)c2)c(-c2ccnc(Nc3ccc4c(c3)CN(C)CC4)n2)s1 | not met
* Cl.Cl.NC[C@H](CC1CCCCC1)NC(=O)c1ccc(-c2ccnc3[nH]ccc23)s1 | met
* CN1CCN(CCCNc2nccc(-c3c(-c4ccc(F)cc4)nn4cc(C(N)=O)ccc34)n2)CC1 | met

###

Tested on: TAK1
Construct: gene MAP3K7
condition_context: concentration: 1 μM,replicates: in singlicate; n = 1
measurement_name: %Inh (%)

* NC(=O)Nc1sc(-c2ccc(F)cc2)cc1C(N)=O | 75
* CC(C(=O)NC1CCN(c2ccnc(Nc3ccc(F)cc3)n2)C1)c1ccc(Cl)cc1 (stereo not drawn) | 0
* O=C1NCCc2[nH]c(-c3ccncc3)cc21 | 23
* CC(C)S(=O)(=O)N1CCN(Cc2ccc3c(c2)nc(NC(=O)c2ccsc2)n3C[C@H](O)c2ccccc2)CC1 | 79
* Cc1ccc(CC(=O)N2CCc3cc(-c4cn(C)c5ncnc(N)c45)ccc32)cc1 | 17
* NC(=O)c1ccc(-c2cc3ncnc(SCC(=O)O)c3s2)cc1 | 0
* O=C(Nc1cccc(C(F)(F)F)c1)c1cccc(Oc2ccc3nccn3n2)c1 | 4
* Cc1cccc(-c2nc(Nc3ccncc3)c3sccc3n2)n1 | 44
* O=C(NOCC1CC1)c1cc(Br)c(F)c(F)c1Nc1ccc(I)cc1Cl | 0
* CCOC(=O)N1CCC(n2cnc(-c3ccc(F)cc3)c2-c2ccnc(N)n2)CC1 | 42
* CS(=O)(=O)c1cccc(CNc2nc(Nc3ccc4c(c3)[C@@H]3C[C@@H]4CNC3=O)ncc2C(F)(F)F)c1 | 92.2
* Nc1nccc(-c2ccc3c(N)n[nH]c3c2)n1 | 8
* CC(=O)c1c(-c2ccncc2)[nH]c(-c2ccncc2)c1C | 19
* CC(=O)Nc1ccc(-c2cc3ncnc(SCC(=O)O)c3s2)cc1 | 17
* Cn1ccc2ncnc(Oc3ccc(NC(=O)Nc4cncc(C(F)(F)F)c4)c(Cl)c3)c21 | 11
* Cn1ccc2ncnc(Oc3ccc(NC(=O)Nc4cnn(C(C)(C)C)c4)c(Cl)c3)c21 | 85
* O=c1[nH]cc(-c2ccc(O)cc2)c2sc(-c3ccncc3)cc12 | 11
* CN(c1ccccc1CNc1nc(Nc2ccc3c(c2)CC(=O)N3)ncc1C(F)(F)F)S(C)(=O)=O | 76
* CCn1c(-c2nonc2N)nc2cncc(CNC3CCNCC3)c21.Cl | 0
* COC(=O)Nc1nc2cc(Oc3ccc(NC(=O)Nc4cc(C(F)(F)F)ccc4Cl)cc3)ccc2[nH]1.Cl | 62
* N#Cc1cccc(C(=O)NC2CCN(c3ccnc(Nc4ccc(F)cc4)n3)C2)c1 (stereo not drawn) | 0
* CC(=O)Nc1nc2cnc(Nc3cc(NC(=O)c4cccc(CC(C)(C)C#N)c4)ccc3C)nc2s1 | 41
* C[C@@H]1CNc2c(sc3ccc4nc(-c5ccncc5)ccc4c23)C(=O)N1 | 62
* CN(c1cccc(CNc2nc(Nc3ccc4c(c3)CC(=O)N4)ncc2C(F)(F)F)c1)S(C)(=O)=O | 43

###

Tested on: RIPK4
condition_context: concentration: 1 μM,replicates: in singlicate; n = 1
Entries and their %Inh values follow.
measurement_name: %Inh (%)

* COc1cc2c(Nc3ccc(NC(=O)c4ccccc4)cc3)ncnc2cc1OCCCN1CCOCC1 [GSK301329] | 0
* COC(=O)Nc1nc2cc(Oc3ccc(NC(=O)Nc4cc(C(F)(F)F)ccc4Cl)cc3)ccc2[nH]1.Cl [GW697465] | 1
* CS(=O)c1ccc(-c2coc3ccc(-c4n[nH]c(=O)o4)cc23)cc1 (centres unmarked) | 0
* CC(C(=O)NC1CCN(c2ccnc(Nc3ccc(F)cc3)n2)C1)c1ccc(Cl)cc1 (centres unmarked) [GSK1379713] | 0
* Cc1nnc(-c2ccc3occ(-c4ccc(S(C)=O)cc4)c3n2)o1 (centres unmarked) | 0
* Cn1ccc2ncnc(Oc3ccc(NC(=O)Nc4ccnc(C(F)(F)F)c4)c(Cl)c3)c21 | 0
* CCNCC(Cc1ccccc1)NC(=O)c1cc(Br)c(-c2ccnc3[nH]ccc23)s1.Cl.Cl (centres unmarked) [GSK1383280] | 20
* Cc1ccc(CC(=O)N2CCc3cc(-c4cn(C)c5ncnc(N)c45)ccc32)cc1 [GSK2634758] | 0
* CS(=O)(=O)c1cccc(CNc2nc(Nc3ccc4c(c3)[C@@H]3C[C@@H]4CNC3=O)ncc2C(F)(F)F)c1 | 77
* C[C@@H](Oc1cc(-n2cnc3cc(-c4cnn(C)c4)ccc32)sc1C(N)=O)c1ccccc1Cl [GSK580432] | 0
* COc1ccc(Nc2nccc(N3CCC(NC(=O)c4cccc(C#N)c4)C3)n2)cc1 (centres unmarked) [GSK1379730] | 0
* CCOC(=O)N1CCC(n2cnc(-c3ccc(F)cc3)c2-c2ccnc(N)n2)CC1 [SB-219952] | 64
* O=c1[nH]cc(-c2ccc(O)cc2)c2sc(-c3ccncc3)cc12 [GSK1033723] | 0
* CC(C)c1nc(-c2cccc(NS(=O)(=O)c3ccccc3)c2)c(-c2ccnc(Nc3ccc4c(c3)CN(C)CC4)n2)s1 [GSK1649598] | 36
* Cn1ccc2ncnc(Oc3ccc(NC(=O)Nc4cncc(C(F)(F)F)c4)c(Cl)c3)c21 | 0
* O=C(Nc1cccc(C(F)(F)F)c1)c1cccc(Oc2ccc3nccn3n2)c1 | 17
* CC(=O)Nc1ccc(-c2cc3ncnc(SCC(=O)O)c3s2)cc1 | 2
